Recorded values, source paper PMC9007951.

assay.remarks: Organ biodistribution of [^68Ga]Ga-DOTATATE by ex vivo gamma counting
Format: in vivo, New Zealand White rabbits
assay.context: male, New Zealand White, rabbit, lymph node, iv, 190 MBq, total radioactivity, male athero4mo rabbits, 200 min after tracer injection, median (IQR), N = 9; read-out: Tissue radioactivity, lymph node

compound	tissue uptake at 200 min [%ID/g]
C[C@@H](O)[C@H](NC(=O)[C@@H]1CSSC[C@H](NC(=O)[C@@H](Cc2ccccc2)NC(=O)CN2CCN(CC(=O)O)CCN(CC(=O)O)CCN(CC(=O)O)CC2)C(=O)N[C@@H](Cc2ccc(O)cc2)C(=O)N[C@H](Cc2c[nH]c3ccccc23)C(=O)N[C@@H](CCCCN)C(=O)N[C@@H]([C@@H](C)O)C(=O)N1)C(=O)O [[^68Ga]Ga-DOTATATE, metal not drawn]	0.013
